Would you kindly list IC50 for each of these molecules?
target_desc: mGluR5 receptor (Sus scrofa, UniProt I3LUI7)
Construct: 450 μg of protein from brain homogenate with 5 nM ^3[H]-MPEP; from tissue; host or cells: pig brain halves without medulla, cerebellum and pons
Sequence (I3LUI7 19-1212): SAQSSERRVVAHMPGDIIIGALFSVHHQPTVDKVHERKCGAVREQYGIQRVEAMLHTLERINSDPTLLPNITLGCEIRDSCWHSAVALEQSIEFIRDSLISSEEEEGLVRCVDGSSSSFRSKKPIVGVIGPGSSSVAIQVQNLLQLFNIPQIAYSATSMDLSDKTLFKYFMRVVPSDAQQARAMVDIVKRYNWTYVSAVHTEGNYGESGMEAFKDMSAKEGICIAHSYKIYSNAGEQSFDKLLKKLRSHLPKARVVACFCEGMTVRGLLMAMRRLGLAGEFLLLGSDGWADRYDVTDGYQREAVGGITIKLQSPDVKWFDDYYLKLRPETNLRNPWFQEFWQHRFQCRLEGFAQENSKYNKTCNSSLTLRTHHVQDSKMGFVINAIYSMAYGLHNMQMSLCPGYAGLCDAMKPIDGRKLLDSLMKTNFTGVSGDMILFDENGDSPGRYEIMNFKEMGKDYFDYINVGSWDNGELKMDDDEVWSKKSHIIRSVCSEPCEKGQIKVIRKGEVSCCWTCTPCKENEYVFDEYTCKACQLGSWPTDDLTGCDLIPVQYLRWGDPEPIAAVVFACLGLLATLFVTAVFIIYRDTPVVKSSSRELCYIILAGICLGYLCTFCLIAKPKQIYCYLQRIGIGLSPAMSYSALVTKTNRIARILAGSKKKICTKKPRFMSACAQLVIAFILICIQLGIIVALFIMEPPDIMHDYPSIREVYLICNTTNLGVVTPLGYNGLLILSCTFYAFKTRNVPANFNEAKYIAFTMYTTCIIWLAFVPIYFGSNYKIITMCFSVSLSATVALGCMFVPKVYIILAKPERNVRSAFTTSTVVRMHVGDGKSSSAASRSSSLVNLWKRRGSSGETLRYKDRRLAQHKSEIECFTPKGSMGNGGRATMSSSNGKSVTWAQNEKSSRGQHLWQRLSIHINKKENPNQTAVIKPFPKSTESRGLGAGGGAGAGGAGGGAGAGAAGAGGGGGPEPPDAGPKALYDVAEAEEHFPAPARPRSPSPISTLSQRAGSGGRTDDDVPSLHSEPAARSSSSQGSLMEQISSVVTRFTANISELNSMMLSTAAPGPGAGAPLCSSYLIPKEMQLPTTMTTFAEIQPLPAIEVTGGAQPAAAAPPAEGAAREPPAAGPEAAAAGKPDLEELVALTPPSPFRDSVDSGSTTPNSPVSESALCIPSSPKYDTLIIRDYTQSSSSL
assay_overview: [3H]-MPEP mGluR5 receptor binding assay (pig brain homogenate)
measurement_setup: 5 nM [3H]-MPEP, read-out: IC50 mGluR5 Receptor (pig) [^3H]-MPEP Bond
Counter-ions that a name gives are not always drawn.
The answer is to be given in nM; state only the numeric part.

The measured IC50 associated with "CC(=O)N(Cc1cc(-c2ccc3ncnc(NC4CC4)c3c2)cs1)C1CC1" reads 110

What the record says about "O=C(N(Cc1cccc(-c2ccc3ncnc(NC4CC4)c3c2)c1)C1CC1)C(F)(F)F" : IC50 is 30

Item: "CC(=O)N(Cc1cccc(-c2ccc3ncnc(NC4CC4)c3c2)c1)C(C)=O" | IC50: 1660

// field: IC50; key: "c1cc(CNC2CC2)cc(-c2ccc3ncnc(NC4CC4)c3c2)c1" ; value = 8670

The reported IC50 of the molecule "O=C(c1ccccn1)N(Cc1cccc(-c2ccc3ncnc(NC4CC4)c3c2)c1)C1CC1" was 1380

IC50 reading for O=C1CCC(=O)N1Cc1cccc(-c2ccc3ncnc(NC4CCC4)c3c2)c1 [Example 872, hydrochloride] : 50

# molecule "N#CCC(=O)N(Cc1cccc(-c2ccc3ncnc(NC4CC4)c3c2)c1F)C1CC1" ; its IC50 = 660

The reported IC50 of the molecule "Cc1cc2ncnc(NC3CC3)c2cc1-c1cccc(CN2C(=O)CCC2=O)c1" was 130
